The compounds below have reported MIC for Escherichia coli TEM1 1193E.
Answer with a number only, understood to be in µg/mL.

// returns reported MIC for input `Nc1nc(/C(=N/O[C@@H](C(=O)O)c2ccc(O)c(O)c2)C(=O)N[C@@H]2C(=O)N3C(C(=O)[O-])=C(/C=C/C[n+]4cnc(N)c5c4CCC5)CS[C@H]23)cs1`
0.25

Same thing, different compound: `Nc1cc(N)[n+](C/C=C/C2=C(C(=O)[O-])N3C(=O)[C@@H](NC(=O)/C(=N\O[C@H](C(=O)O)c4ccc(O)c(O)c4)c4csc(N)n4)[C@H]3SC2)cn1`
0.031

Same thing, different compound: `Nc1nc(/C(=N/O[C@@H](C(=O)O)c2ccc(O)c(O)c2)C(=O)N[C@@H]2C(=O)N3C(C(=O)[O-])=C(/C=C/C[n+]4cnc(N)c(N)c4N)CS[C@H]23)cs1`
0.25

Same thing, different compound: `Nc1cc[n+](C/C=C/C2=C(C(=O)[O-])N3C(=O)[C@@H](NC(=O)/C(=N\O[C@H](C(=O)O)c4ccc(O)c(O)c4)c4csc(N)n4)[C@H]3SC2)cn1`
0.063

Same thing, different compound: `Cc1c(N)nc[n+](C/C=C/C2=C(C(=O)[O-])N3C(=O)[C@@H](NC(=O)/C(=N\O[C@@H](C(=O)O)c4ccc(O)c(O)c4)c4csc(N)n4)[C@H]3SC2)c1N`
0.25

* * *

Assign half-life to each entry below.
Assay: Pharmacokinetic properties in rats (blood concentration by agar well biological assay)
Set-up: species or system SD rats (male)
Conditions: rat, in vivo, iv, 20 mg/kg
Protocol: The pharmacokinetic properties of the compound of the present invention were determined using SD rats (.male.) weighing 230±10 g. Specifically,the test samples were injected into femoral vein in an amount of 20 mg/kg to 4 to 5 test animals. Blood was taken from femoral vein 1, 2.5, 5, 10, 20, 40, 60, 120 and 180 minutes after administration and then subjected to a biological assay using agar well method to measure the blood concentration.
Answer with a number only, understood to be in min.

// returns reported half-life for input `Nc1nc(/C(=N/O[C@H](C(=O)O)c2ccc(O)c(O)c2)C(=O)N[C@@H]2C(=O)N3C(C(=O)[O-])=C(/C=C/C[n+]4cnc(N)c(N)c4N)CS[C@H]23)cs1`
41

Same thing, different molecule: `Nc1cc(N)[n+](C/C=C/C2=C(C(=O)[O-])N3C(=O)[C@@H](NC(=O)/C(=N\O[C@H](C(=O)O)c4ccc(O)c(O)c4)c4csc(N)n4)[C@H]3SC2)cn1`
34

Same thing, different molecule: `Nc1nc(/C(=N/O[C@H](C(=O)O)c2ccc(O)c(O)c2)C(=O)N[C@@H]2C(=O)N3C(C(=O)[O-])=C(/C=C/C[n+]4cnc(N)c5c4CCC5)CS[C@H]23)cs1`
33

Same thing, different molecule: `Cc1c(N)nc[n+](C/C=C/C2=C(C(=O)[O-])N3C(=O)[C@@H](NC(=O)/C(=N\O[C@H](C(=O)O)c4ccc(O)c(O)c4)c4csc(N)n4)[C@H]3SC2)c1N`
53

Same thing, different molecule: `Nc1cc[n+](C/C=C/C2=C(C(=O)[O-])N3C(=O)[C@@H](NC(=O)/C(=N\O[C@H](C(=O)O)c4ccc(O)c(O)c4)c4csc(N)n4)[C@H]3SC2)cn1`
55
